test system: HCV replicon; experiment: microbe, parasite or virus in culture; assay type: cell-based; settings: Hepatitis C virus, 48 h, read-out: Replicon IC5Os
pIC50: −log10 of the molar value.
ASSAY ENDPOINT: pIC50

// recorded pIC50 for CCC(=O)Nc1ccc(-c2c(C#N)c3ccc(C(F)(F)F)cc3n2CC)cc1 : 5.70 to 6.30

// recorded pIC50 for CCn1c(-c2ccc(NS(=O)(=O)CC)cc2)c(C#N)c2ccc(OC(F)F)cc21 : > 6.30

// recorded pIC50 for CCn1c(-c2ccc(NS(C)(=O)=O)cc2)c(C#N)c2ccc(OCCN(C)C)cc21 : 5.70 to 6.30

// recorded pIC50 for CCn1c(-c2ccc(NS(=O)(=O)C3CC3)cc2)c(C#N)c2cc(Cl)ccc21 : > 6.30

// recorded pIC50 for CCCOC(=O)Nc1cccc(-c2c(C#N)c3cc(N4CCOCC4)ccc3n2CC)c1 : > 6.30

// recorded pIC50 for CCOC(=O)Nc1cccc(-c2c(C#N)c3ccc(OC(C)C)cc3n2CC)c1 : 5.70 to 6.30

// recorded pIC50 for CCn1c(-c2cccc(NC(=O)Nc3ccc(Oc4ccccc4)cc3)c2)c(C#N)c2ccc(OC)cc21 : > 6.30

// recorded pIC50 for CCCNC(=O)Nc1cccc(-c2c(C#N)c3ccc(OC)cc3n2CC)c1 : > 6.30

// recorded pIC50 for CCOc1ccc2c(C#N)c(-c3ccc(N(C)S(C)(=O)=O)cc3)n(C3CCC3)c2c1 : 5.70 to 6.30

// recorded pIC50 for CCCn1c(-c2ccc(NS(=O)(=O)CC)cc2)c(C#N)c2ccc(OCC)cc21 : > 6.30

// recorded pIC50 for CCOC(=O)Nc1cccc(-c2c(C#N)c3ccc(OCCCn4ccnc4)cc3n2CC)c1 : 5.70 to 6.30

// recorded pIC50 for CCOc1ccc2c(C#N)c(-c3ccc(NS(C)(=O)=O)cc3)n(C3CCC3)c2c1 : > 6.30

// recorded pIC50 for N#Cc1c(-c2ccc(NC(=O)NC3CCCC3)cc2)n(CC2CC2)c2cc(OC(F)F)ccc12 : > 6.30

// recorded pIC50 for CCn1c(-c2ccc(NC(=O)OC)cc2)c(C#N)c2ccc(OCCF)cc21 : 5.70 to 6.30

// recorded pIC50 for CCCCn1c(-c2ccc(NC(=O)NCC)cc2)c(C#N)c2ccc(OC)cc21 : > 6.30

// recorded pIC50 for CCOC(=O)Nc1ccc(-c2c(C#N)c3ccc(OCCCN4CCCCC4)cc3n2CC)cc1 : > 6.30

// recorded pIC50 for COc1ccc2c(C#N)c(-c3ccc(NS(C)(=O)=O)cc3)n(CC3CC3)c2c1 : 5.70 to 6.30

// recorded pIC50 for CCCS(=O)(=O)Nc1cccc(-c2c(C#N)c3ccc(C(F)(F)F)cc3n2CC)c1 : 5.70 to 6.30

// recorded pIC50 for CCn1c(-c2ccc(NC(=O)C3CCC3)cc2)c(C#N)c2ccc(OC(C)C)cc21 : > 6.30

// recorded pIC50 for CCOc1ccc2c(C#N)c(-c3ccc(NS(C)(=O)=O)cc3)n(CC)c2c1 : > 6.30

// recorded pIC50 for CCCCNC(=O)Nc1ccc(-c2c(C#N)c3ccc(OC(F)F)cc3n2CC2CC2)cc1 : 5.70 to 6.30

// recorded pIC50 for CCS(=O)(=O)Nc1ccc(-c2c(C#N)c3cc(Cl)ccc3n2CCC(C)C)cc1 : 5.70 to 6.30

// recorded pIC50 for Cn1c(-c2ccc(NS(C)(=O)=O)cc2)c(C#N)c2ccc(OC(F)F)cc21 : 5.70 to 6.30

// recorded pIC50 for CCn1c(-c2cccc(NC(=O)OC(C)C)c2)c(C#N)c2ccc(OC)cc21 : 5.70 to 6.30

// recorded pIC50 for CCn1c(-c2cccc(NC(=O)Nc3ccccc3C)c2)c(C#N)c2ccc(OC)cc21 : 5.70 to 6.30

// recorded pIC50 for CCS(=O)(=O)Nc1ccc(-c2c(C#N)c3cc(OC)ccc3n2C)cc1 : > 6.30

// recorded pIC50 for CCn1c(-c2ccc(C(=O)NC(C)C)cc2)c(C#N)c2cc(OC)ccc21 : 5.70 to 6.30

// recorded pIC50 for CCOC(=O)Nc1ccc(-c2c(C#N)c3ccc(OCCCn4ccnc4)cc3n2CC)cc1 : 5.70 to 6.30

// recorded pIC50 for CCNC(=O)N1CCc2cc(-c3c(C#N)c4ccc(OC)cc4n3CC)ccc21 : 5.70 to 6.30

// recorded pIC50 for CCOc1ccc2c(C#N)c(-c3ccc(N(C)S(=O)(=O)CC)cc3)n(C)c2c1 : 5.70 to 6.30

// recorded pIC50 for CCCn1c(-c2ccc(NS(=O)(=O)C(C)C)cc2)c(C#N)c2ccc(OC)cc21 : 5.70 to 6.30

// recorded pIC50 for CCCn1c(-c2ccc(NS(C)(=O)=O)cc2)c(C#N)c2ccc(OC)cc21 : > 6.30

// recorded pIC50 for CCCOC(=O)Nc1cccc(-c2c(C#N)c3ccc(OC)cc3n2CC)c1 : 5.70 to 6.30
